EXPERIMENTAL TARGET: activated His–JNK2–FLAG (Homo sapiens, UniProt P45984)
Sequence (P45984 whole entry): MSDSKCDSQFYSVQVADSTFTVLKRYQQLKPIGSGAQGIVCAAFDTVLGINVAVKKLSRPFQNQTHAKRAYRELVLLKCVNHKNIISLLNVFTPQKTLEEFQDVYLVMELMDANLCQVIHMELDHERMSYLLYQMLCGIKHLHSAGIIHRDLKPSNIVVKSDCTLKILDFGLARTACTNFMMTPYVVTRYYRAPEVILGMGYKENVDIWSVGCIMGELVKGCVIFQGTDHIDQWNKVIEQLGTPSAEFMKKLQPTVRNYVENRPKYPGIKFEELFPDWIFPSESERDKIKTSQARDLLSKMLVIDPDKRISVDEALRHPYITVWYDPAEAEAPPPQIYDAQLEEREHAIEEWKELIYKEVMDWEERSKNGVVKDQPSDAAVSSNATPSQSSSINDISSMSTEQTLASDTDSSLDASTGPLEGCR
EXPERIMENTAL PROTOCOL: biochemical
Where no end group is shown, it is not given here.
READOUT LABEL: IC50 (µM)

[[record]]
sequence_record = "GRKKRRQRRRPPNHEARANLRLTLSSACDGLL [WDR62 peptide]"
experimental_target = "activated His–JNK2–FLAG (Homo sapiens, UniProt P45984)"
readout_label = "IC50"
observed_measurement = 5

